test: Pharmacokinetics after repeated oral administration of 35 μg/kg of fluralaner in dogs after feeding; type: in vivo, beagle dogs; details: oral 35 μg/kg Days 0-3, dogs, n=6

Compound	Unit Symbol	Lambda z, Median
Cc1cc(C2=NOC(c3cc(Cl)cc(Cl)c3)(C(F)(F)F)C2)ccc1C(=O)NCC(=O)NCC(F)(F)F (stereo not shown)	h⁻¹	0.00297

====

assay: Pharmacokinetics after repeated oral administration of 35 μg/kg of fluralaner in dogs after feeding; format: in vivo, beagle dogs; conditions: beagle, dog, plasma, po, 35 ug/kg, oral 35 μg/kg Days 0-3, dogs, n=6; read-out: t½ (terminal half-life), Mean (converted)

Compound	half-life
Cc1cc(C2=NOC(c3cc(Cl)cc(Cl)c3)(C(F)(F)F)C2)ccc1C(=O)NCC(=O)NCC(F)(F)F (stereo not shown)	217 h
